// data source = ChEMBL document CHEMBL3259791

- Test system: A2780
- test-protocol: Antiproliferative activity against human A2780 cells assessed as cell growth inhibition after 72 hrs by MTT assay
- Format: functional
- test-context: A2780, 72 h
property-label: GI50 (nM)

[
  {
    "input-smiles": "COc1cc(OC)c(/C=C/S(=O)(=O)Cc2ccc(OC)c(N)n2)c(OC)c1",
    "assayed-target": "A2780",
    "GI50 / nM": 7
  },
  {
    "input-smiles": "COc1cc(OC)c(/C=C/S(=O)(=O)Cc2cnc(OC)c(NS(C)(=O)=O)c2)c(OC)c1",
    "assayed-target": "A2780",
    "GI50 / nM": 317
  },
  {
    "input-smiles": "COc1cc(OC)c(/C=C/S(=O)(=O)Cc2ccc(OC)c(NCC(=O)O)c2)c(OC)c1",
    "assayed-target": "A2780",
    "GI50 / nM": 62
  },
  {
    "input-smiles": "COc1cc(OC)c(/C=C/S(=O)(=O)Cc2cnc(OC)c(NCC(=O)O)c2)c(OC)c1",
    "assayed-target": "A2780",
    "GI50 / nM": 376
  }
]

P = COc1cc(OC)c(/C=C/S(=O)(=O)Cc2cnc(OC)c([N+](=O)[O-])c2)c(OC)c1
Q = COc1cc(OC)c(/C=C/S(=O)(=O)Cc2ccc(OC)c(NS(C)(=O)=O)n2)c(OC)c1
R = COc1cc(OC)c(/C=C/S(=O)(=O)Cc2ccc(OC)c(NCC(=O)O)n2)c(OC)c1
Order each entry by recorded GI50, climbing from the minimum. To answer, write out the labels according to the requested order.
R, Q, P
(R: 253 nM, Q: 406 nM, P: 7210 nM)

---

Quick reference: Cmax of the listed items.
- test-protocol: Cmax in mouse at 40 mg/kg, po after 24 hrs
- Assay type: ADME, organism-based
- Set-up: dose 40 mg/kg, route oral
- test-context: in vivo
Answer with a number only, understood to be in nM.

[
  {
    "input-smiles": "COc1cc(OC)c(/C=C/S(=O)(=O)Cc2ccc(OC)c(N)n2)c(OC)c1",
    "property-label": "Cmax",
    "measurement-unit": "nM",
    "meas-value": 2500
  }
]

# ---- query molecule ----
Answer with the recorded Cmax for the molecule listed here: `COc1cc(OC)c(/C=C/S(=O)(=O)Cc2cnc(OC)c(N)c2)c(OC)c1`
3000

---

- Tested on: MCF7
- test-protocol: Antiproliferative activity against human MCF7 cells assessed as cell growth inhibition after 72 hrs by MTT assay
- Type: functional
- test-context: MCF7, 72 h
property-label: GI50 (nM)

// known answers, use as guide
[
  {
    "molecule": "COc1cc(OC)c(/C=C/S(=O)(=O)Cc2cnc(OC)c([N+](=O)[O-])c2)c(OC)c1",
    "measurement-unit": "nM",
    "GI50": 5220
  },
  {
    "molecule": "CCOC(=O)CNc1cc(CS(=O)(=O)/C=C/c2c(OC)cc(OC)cc2OC)cnc1OC",
    "measurement-unit": "nM",
    "GI50": 940
  }
]

A = COc1cc(OC)c(C(C(c2cnc(OC)c([N+](=O)[O-])c2)S(C)(=O)=O)N2CCCCC2)c(OC)c1 (configuration not stated)
B = COc1cc(OC)c(/C=C/S(=O)(=O)Cc2ccc(OC)c(NC(C)=O)n2)c(OC)c1
For this pair, A and B , which shows a numerically higher GI50? # answer = label of selected item
A

---

- test-protocol: Apparent permeability across basolateral to apical side in human Caco2 cells
- Assay type: ADME, cell-based
- test-context: Caco-2
property-label: Papp B→A (nm/s)

// known answers, use as guide
[
  {
    "input-smiles": "COc1cc(OC)c(/C=C/S(=O)(=O)Cc2ccc(OC)c(NS(C)(=O)=O)n2)c(OC)c1",
    "Papp B→A [nm/s]": 534
  },
  {
    "input-smiles": "COc1cc(OC)c(/C=C/S(=O)(=O)Cc2ccc(OC)c(N)n2)c(OC)c1",
    "Papp B→A [nm/s]": 262
  }
]

P = COc1cc(OC)c(/C=C/S(=O)(=O)Cc2cnc(OC)c(NS(C)(=O)=O)c2)c(OC)c1
Q = COc1cc(OC)c(/C=C/S(=O)(=O)Cc2cnc(OC)c(N)c2)c(OC)c1
Sorting ascending by Papp B→A, which comes first: P or Q ? # answer = label of selected item
Q
(Q: 215 nm/s, P: 471 nm/s)

---

- test-protocol: Half life in rat liver microsomes
- Assay type: ADME
property-label: half-life (min)

1 = COc1cc(OC)c(/C=C/S(=O)(=O)Cc2ccc(OC)c(NS(C)(=O)=O)n2)c(OC)c1
2 = COc1cc(OC)c(/C=C/S(=O)(=O)Cc2cnc(OC)c(NS(C)(=O)=O)c2)c(OC)c1
For this pair, 1 and 2 , which shows a numerically higher half-life? # answer = label of selected item
1
(1: 113 min, 2: 70 min)

---

- Test system: A2780
- test-protocol: Antiproliferative activity against human A2780 cells assessed as cell growth inhibition after 72 hrs by MTT assay
- Assay type: functional
- test-context: A2780, 72 h
property-label: GI50 (µM)

P = CCOC(=O)CNc1cc(CS(=O)(=O)/C=C/c2c(OC)cc(OC)cc2OC)cnc1OC
Q = COc1cc(OC)c(/C=C/S(=O)(=O)Cc2cnc(OC)c(NC(C)=O)c2)c(OC)c1
For this pair, P and Q , which shows a numerically higher GI50? # answer = label of selected item
Q
(Q: 7.09 µM, P: 0.409 µM)

P = CCOC(=O)CNc1nc(CS(=O)(=O)/C=C/c2c(OC)cc(OC)cc2OC)ccc1OC
Q = COc1cc(OC)c(/C=C/S(=O)(=O)Cc2ccc(OC)c(NC(C)=O)n2)c(OC)c1
Sorting ascending by GI50, which comes first: P or Q ? # answer = label of selected item
Q

---

- test-protocol: Antiproliferative activity against human PANC1 cells assessed as cell growth inhibition after 72 hrs by MTT assay
- Type: functional
- test-context: PANC-1, 72 h
property-label: GI50 (nM)
Answer with a number only, understood to be in nM.

// known answers, use as guide
[
  {
    "input-smiles": "COc1cc(OC)c(/C=C/S(=O)(=O)Cc2cnc(OC)c(NS(C)(=O)=O)c2)c(OC)c1",
    "GI50 [nM]": 875
  },
  {
    "input-smiles": "COc1cc(OC)c(/C=C/S(=O)(=O)Cc2ccc(OC)c(NS(C)(=O)=O)n2)c(OC)c1",
    "GI50 [nM]": 604
  }
]

# ---- query compound ----
Answer with the recorded GI50 for the compound listed here: `COc1cc(OC)c(/C=C/S(=O)(=O)Cc2ccc(OC)c(NCC(=O)O)c2)c(OC)c1`
39

---

- test-protocol: Apparent permeability across apical to basolateral side in human Caco2 cells
- Format: ADME, cell-based
- test-context: Caco-2
property-label: Papp A→B (×10⁻⁶ cm/s)

// known answers, use as guide
[
  {
    "input-smiles": "COc1cc(OC)c(/C=C/S(=O)(=O)Cc2cnc(OC)c(N)c2)c(OC)c1",
    "measurement-unit": "×10⁻⁶ cm/s",
    "Papp A→B": 42.3
  },
  {
    "input-smiles": "COc1cc(OC)c(/C=C/S(=O)(=O)Cc2ccc(OC)c(N)n2)c(OC)c1",
    "measurement-unit": "×10⁻⁶ cm/s",
    "Papp A→B": 33.1
  }
]

A = COc1cc(OC)c(/C=C/S(=O)(=O)Cc2cnc(OC)c(NS(C)(=O)=O)c2)c(OC)c1
B = COc1cc(OC)c(/C=C/S(=O)(=O)Cc2ccc(OC)c(NS(C)(=O)=O)n2)c(OC)c1
For this pair, A and B , which shows a numerically higher Papp A→B? # answer = label of selected item
A
(A: 8.9 ×10⁻⁶ cm/s, B: 3.15 ×10⁻⁶ cm/s)

---

- test-protocol: Octanol-buffer partition coefficient, log D of the compound at pH 7.4 by shake-flask method
- Type: physicochemical
property-label: logD

// known answers, use as guide
[
  {
    "input-smiles": "COc1cc(OC)c(/C=C/S(=O)(=O)Cc2ccc(OC)c(N)n2)c(OC)c1",
    "logD": 2.41
  },
  {
    "input-smiles": "COc1cc(OC)c(/C=C/S(=O)(=O)Cc2cnc(OC)c(NS(C)(=O)=O)c2)c(OC)c1",
    "logD": 1.52
  }
]

P = COc1cc(OC)c(/C=C/S(=O)(=O)Cc2ccc(OC)c(NS(C)(=O)=O)n2)c(OC)c1
Q = COc1cc(OC)c(/C=C/S(=O)(=O)Cc2cnc(OC)c(N)c2)c(OC)c1
For this pair, P and Q , which shows a numerically higher logD? # answer = label of selected item
Q
